# System: HCT-15 colon
# assay: NCI tumour cell line growth inhibition, 48 h
Where a SMILES comes first, the peptide text is derived from it. The star is where a group is joined. X36 = O=C(c1ccc(-c2ccc(Cl)cc2Cl)o1)*
readout_type: TGI

Field request: TGI | item: N#CC(=NCCO)C1=C(O)c2ccccc2C1=O > 100 µM

Next entry: COC(=O)/C(C=O)=C/Sc1ccccc1 > 100 µM

Next entry: CC(=O)N1N=C(c2ccc3ccccc3c2O)CC1C(=O)c1ccco1 (stereo not given) > 100 µM

Next entry: c1cc2nnnn2nc1N1CCCC1 > 100 µM

Next entry: CC(=O)O[C@H]1CC[C@@]2(C)C(=CC[C@H]3[C@@H]4C[C@H](N5CCCC5)[C@H](OC(C)=O)[C@@]4(C)CC[C@@H]32)C1 > 100 µM

Next entry: N#Cc1nc(-c2cccs2)oc1N > 100 µM

Next entry: COc1cc(C2SCC(=O)N2c2ccc(-c3ccc(-n4c(-c5ccccc5)nc5ccccc5c4=O)cc3)cc2)cc(OC)c1OC (stereo not given) > 100 µM

Next entry: COc1cc2ncn(-c3cc(OCCc4ccccc4)c(C(N)=O)s3)c2cc1OC > 25 µM

Next entry: CCC(C)C(NC(=O)CNC(=O)C(Cc1ccccc1)NC(=O)C1CCCN1C(=O)c1ccc(-c2ccc(Cl)cc2Cl)o1)C(=O)OC (stereo not given) (X36-PFGI-OMe; configuration not given here) > 100 µM

Next entry: Cc1cc(NS(=O)(=O)c2ccc(Nc3c4ccccc4nc4c(C(=O)NCCN(C)C)cccc34)cc2)no1 > 100 µM

Next entry: CN(C)C(=S)/N=c1\ss/c(=N\C(=S)N(C)C)n1-c1ccc(Cl)c(Cl)c1 > 100 µM

Next entry: COc1ccc(C(=O)COc2cccc(/C=C3\Oc4ccc5ccccc5c4C3=O)c2)cc1 13.7 µM

Next entry: Cc1cc(C)[n+](CCOc2ccc(/C(=C(/Cl)c3ccccc3)c3ccccc3)cc2)c(C)c1 27.5 µM

Next entry: NCCSc1nc2ccccc2c(=O)n1-c1ccccc1 > 100 µM

Next entry: NC(CS/C(Cl)=C/Cl)C(=O)O (stereo not given) > 100 µM

Next entry: CC1Cn2c(nc3ccccc32)NC1=O (stereo not given) > 100 µM

Next entry: O=C(CSc1nnc(Cc2ccccc2)o1)Nc1ccc([N+](=O)[O-])cc1 > 100 µM

Next entry: CC(=O)c1ccc2c3c1[C@@H]1O[C@@H]1c1cccc(c1-3)[C@@H]1O[C@H]21 12.5 µM

Next entry: O=C(Nc1ccc(-c2ccccc2)cc1)C1CCN(S(=O)(=O)c2ccccc2Cl)CC1 > 100 µM

Next entry: CCc1ccc2oc(-c3cc(O)c(-c4nc5cc(CC)ccc5o4)cc3O)nc2c1 > 100 µM

* * *

Assign TGI to each entry below.
# Test system: MALME-3M melanoma
# assay: NCI tumour cell line growth inhibition, 48 h

Field request: TGI | item: CCCCCC(=O)NC(=S)Nc1nn[nH]n1 > 100 µM

Next entry: Cc1ccc(S(=O)(=O)OCC(=O)O)cc1 > 100 µM

Next entry: COc1cccc(C2CC(C)=Nc3c(ccc4c3C(=O)c3ccccc3C4=O)N2)c1O (stereo unspecified) > 100 µM

Next entry: Cc1ccn2c(=O)cc(-c3ccccc3)nc2c1 > 100 µM

Next entry: CCOC(=O)c1c[nH]c2oc(/C=N/N3CC(CN4CCOCC4)OC3=O)cc2c1=O (stereo unspecified) > 100 µM

Next entry: C=C1C[C@]23CCC4C(C)(C)C(=O)CC[C@]4(C)C2C[C@H]1C(O)C3=O (stereo partly specified) > 75 µM

Next entry: O=C1c2ccccc2CCCCCCCCCCC12OCCCO2 77.8 µM

Next entry: COc1cc2c(cc1O)C1Cc3ccc(OC)c(O)c3C(C2)N1C (stereo unspecified) > 100 µM

Next entry: N=C(N)SCc1cccc(-c2nc3ccccc3c(=O)o2)c1 > 100 µM

Next entry: COc1cc2ncn(-c3cc(OCCc4ccccc4)c(C(N)=O)s3)c2cc1OC > 25 µM

Next entry: C[C@H](N)C(=O)Nc1ccc(-c2nc3ccccc3s2)cc1 39.5 µM

* * *

# Test system: DU-145 prostate
# assay: NCI tumour cell line growth inhibition, 48 h; in the data active means GI50 below about 0.43 µM; inactive means the rest
// one of Yes for active, No for inactive, no free text

Could you kindly confirm the outcome this assay logged for O=[N+]([O-])c1ccc2c(c1)C(c1ccccc1Cl)=Nc1cn[nH]c1N2 ? No

Next entry: Cc1cc(N/N=C/c2nc(-c3ccc(Br)cc3)oc2C)c2cc(Br)ccc2n1 No

Next entry: O=C(Nc1ccc(Br)cc1)c1ccc(Cl)c(Cl)c1 No

Next entry: C[C@]12CC[C@H](O)C[C@H]1CC[C@@H]1[C@@H]2CC[C@]2(C)[C@@H](C3=CC(=O)OC3)CC[C@]12O Yes

Next entry: C=C1C(=O)O[C@H]2[C@H]1CC/C(COC(=O)c1ccc(Cl)nc1)=C\CC[C@@]1(C)O[C@@H]21 No

Next entry: COc1cccc(/C(COc2ccc3c(c2)oc(=O)c2cc(OC)ccc23)=N/O)c1 No

Next entry: Cc1cc(S(=O)(=O)N/N=C(\Sc2cc(Cl)c(C)cc2S(N)(=O)=O)c2ccc(Cl)cc2)c(Cl)cc1Cl No

Next entry: Cc1cn2c(/C=C3\C(=O)N(C)c4ccc(O)cc43)c(C)nc2s1 No

Next entry: Cn1cc(C2=C(c3cn(CCCCCN)c4ccccc34)C(=O)NC2=O)c2ccccc21 No

Next entry: CCC(C)(C)c1ccc(OCCCCCCN2CCNCC2)cc1 No

Next entry: CC(C)S(=O)(=O)c1ccccc1Nc1nc(Nc2cccc(NC(=O)CN)c2)ncc1Cl Yes

Next entry: Nc1nc(SN=Nc2ccc(S(N)(=O)=O)cc2)c2[nH]cnc2n1 No

Next entry: O=C(Nc1ccc(-c2ccccc2)cc1)C1CCN(S(=O)(=O)c2ccccc2Cl)CC1 No

* * *

Assign TGI to each entry below.
# System: M14 melanoma
# assay: NCI tumour cell line growth inhibition, 48 h
Answer with a number only, understood to be in µM.

Field request: TGI | item: O=C1[C@H]2ON(c3ccccc3)C(c3ccc(Cl)cc3)[C@H]2C(=O)N1c1ccc(Cc2ccc(N3C(=O)[C@@H]4ON(c5ccccc5)C(c5ccc(Cl)cc5)[C@@H]4C3=O)cc2)cc1 (stereo partly drawn) 66.8

Next entry: C[n+]1cc(C(O)c2ccc3c(c2)OCO3)c2ccccc2c1 (stereo not drawn) 91.7

Next entry: COc1ccc2[nH]c3c4c(ccc3c2c1)C(=O)C=CC4=O 35.2

Next entry: C[C@]12CC[C@H](O)C[C@H]1CC[C@@H]1[C@@H]2CC[C@]2(C)[C@@H](C3=CC(=O)OC3)CC[C@]12O 1.6

* * *

# System: UACC-62 melanoma
# assay: NCI tumour cell line growth inhibition, 48 h
Assign TGI to each entry below.
Answer with a number only, understood to be in µM.

Field request: TGI | item: CCC(C)(C)c1ccc(OCCCCCCN2CCNCC2)cc1 3.52

Next entry: C[C@]12CC[C@@H]3c4ccc(O)cc4CC[C@H]3[C@@H]1CC[C@@H]2NS(=O)(=O)c1cccc(F)c1 11.3

Next entry: Cc1ccc(/C(O)=C/C(=O)C(=O)/C=C(\O)c2ccc(C)cc2C)c(C)c1 3.38

Next entry: Cc1cc(NS(=O)(=O)c2ccc(Nc3c4ccccc4nc4c(C(=O)NCCN(C)C)cccc34)cc2)no1 14.4

* * *

# Test system: BT-549 breast
# assay: NCI tumour cell line growth inhibition, 48 h
readout_type: TGI

Field request: TGI | item: COc1ccc(Nc2nc(NS(=O)(=O)c3cc(C)c(Cl)cc3S)n[nH]2)cc1 > 100 µM

Next entry: C=CCCC(=O)CC(O)(C(F)(F)F)C(F)(F)F > 100 µM

Next entry: Cc1ccc([C@H]2CC(=O)C[C@H](c3ccc(C)cc3)C23C(=O)c2ccccc2C3=O)cc1 > 100 µM

Next entry: COc1ccc(-c2c[nH]c(=S)n2-c2ccc(OC)cc2)cc1 > 50 µM

Next entry: O=C(/C=C/c1cc(CN2CCOCC2)c(O)c2ncccc12)c1cc(CN2CCOCC2)c(O)c2ncccc12 16.9 µM

Next entry: N=C(N)c1ccc(N=Nc2c(O)ccc3c2[nH]c2ccccc23)cc1 99.4 µM

Next entry: CC(C)S(=O)(=O)c1ccccc1Nc1nc(Nc2cccc(NC(=O)CN)c2)ncc1Cl 1 µM

Next entry: Cc1ccc2c(=O)cc(-c3cccs3)[nH]c2n1 > 100 µM

Next entry: CC(=O)O[C@H]1C#C/C=C\C#CC[C@@H]2C(=O)N[C@@H]12 > 86.5 µM

Next entry: Cc1cn2c(/C=C3\C(=O)N(C)c4ccc(O)cc43)c(C)nc2s1 > 100 µM

* * *

# System: BT-549 breast
# assay: NCI tumour cell line growth inhibition, 48 h
Measured TGI determines class: 1 (below 20 µM), 2 (20 µM to below 50 µM), 3 (50 µM or more)

State the band of COc1ccc2[nH]c3c4c(ccc3c2c1)C(=O)C=CC4=O 3

Next entry: O=C(Nc1ccc(-n2cc(-c3ccncc3)c(-c3ccc(Cl)c(O)c3)n2)cc1)Nc1ccc(Cl)c(C(F)(F)F)c1 1

Next entry: Cc1cc2c(cc1Cl)SC(=Nc1ccc(Cl)cc1)N(S(=O)(=O)c1ccccc1)S2(=O)=O 2

Next entry: N#CC(=NCCO)C1=C(O)c2ccccc2C1=O 3

Next entry: C[C@]12CC[C@H](O)C[C@H]1CC[C@@H]1[C@@H]2CC[C@]2(C)[C@@H](C3=CC(=O)OC3)CC[C@]12O 1

Next entry: Cn1cc(C2=C(c3cn(CCCCCN)c4ccccc34)C(=O)NC2=O)c2ccccc21 2

Next entry: CCN1C(=O)C(=C/C=C/c2ccc([N+](=O)[O-])cc2)C(=O)N(CC)C1=S 2

Next entry: CCOC(=O)/C1=C(\C)N(c2ccc(C)cc2)C(=O)c2ccccc2C(=O)c2c(OC(C)=O)ccc(OC(C)=O)c21 3

Next entry: O=c1[nH]cnc2cccc(Cl)c12 3

Next entry: Cc1cc(I)cc(CN(C)CCCN2CCOCC2)c1O 3
